Property: % ambulation; scope: individual compounds
Tested on: mice
Test: Locomotor activity test (LMA)
Assay type: in vivo
Details: 30 mg/kg, ip, LMA measured 30 minutes after dosing, counts for 10 minutes, percent change from control
Description: Psychostimulant activity was examined through the locomotor activity test (LMA). The LMA is a behavioral test developed to predict the efficacy of psychostimulants. […] Sixteen (16) mice (3 weeks CrjBgi:CD-1 (ICR) and 8 weeks C57BL/6) were purchased from Orient Bio Inc. (Gyeonggi-do, Korea). […] At 30 minutes after i.p. dosing, LMA was measured using automated photobeams, Opto-Varimax® (Columbus Instruments, Ohio, US) and recorded on a computer. […]

The examples below pair each entry with its known result.
>>> df
                                   compound  measurementtarget  assayreadout          valuemeasured
0  Cl.NC(=O)NC(=O)OC[C@H](N)Cc1ccccc1 [Example 2]               mice  % ambulation  118.7% (30 mg/kg, ip)
1  CC(C)N[C@@H](COC(=O)NC(N)=O)Cc1ccccc1.Cl [Example 3]               mice  % ambulation  291.5% (30 mg/kg, ip)
2  CN(C(N)=O)C(=O)OC[C@H](N)Cc1ccccc1 [Example 8]               mice  % ambulation  186.4% (30 mg/kg, ip)

## Task Check the records and state % ambulation for CN(C)[C@@H](COC(=O)NC(N)=O)Cc1ccccc1.Cl [Example 4]
## Result 242.6% (30 mg/kg, ip)

The origin of these recorded values is patent US10888542B2.
